- tested_system: T1, soluble human FcRn (shFcRn) (human, UniProt P55899 24-297; P61769 21-119)
- T1 construct: Biotinylated for the ELISA, amine-coupled to a CM5 chip for SPR; also called biotinylated shFcRn
- T1 sequence (P55899 24-297 limits assumed, chain 1 of 2): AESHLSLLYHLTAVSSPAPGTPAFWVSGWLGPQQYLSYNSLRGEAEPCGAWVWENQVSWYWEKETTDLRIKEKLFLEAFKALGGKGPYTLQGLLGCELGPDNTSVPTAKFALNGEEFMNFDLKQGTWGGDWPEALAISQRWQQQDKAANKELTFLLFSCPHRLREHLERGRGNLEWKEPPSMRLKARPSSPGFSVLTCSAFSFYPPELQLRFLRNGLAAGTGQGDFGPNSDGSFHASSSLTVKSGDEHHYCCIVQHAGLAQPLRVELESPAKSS
- T1 sequence (P61769 21-119 limits assumed, chain 2 of 2): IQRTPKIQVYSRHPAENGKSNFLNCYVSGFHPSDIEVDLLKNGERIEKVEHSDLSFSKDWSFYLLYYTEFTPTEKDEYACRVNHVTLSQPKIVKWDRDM
- experiment_notes: SPR pH 6
Bridge positions count the residues as written; N and C are the ends. Square brackets hold non-standard residues; d marks the D form. Ends that are not written are not given here. NMeL = CN[C@@H](CC(C)C)C(=O)O; Pen = CC(C)(S)[C@H](N)C(=O)O; Sar = CNCC(=O)O
readout_type: Kd (nM)
Kindly provide the numeric value in nM only, without the unit symbol.

## Task Would you mind telling me what Kd value was observed for RF[Pen]TGHF[dL][Sar][NMeL]YPC-NH2 (disulfide 3-13; N-terminus assumed; SMILES CC(C)C[C@H]1NC(=O)[C@H](Cc2ccccc2)NC(=O)[C@H](Cc2c[nH]cn2)NC(=O)CNC(=O)[C@H]([C@@H](C)O)NC(=O)[C@@H](NC(=O)[C@H](Cc2ccccc2)NC(=O)[C@@H](N)CCCNC(=N)N)C(C)(C)SSC[C@@H](C(N)=O)NC(=O)[C@@H]2CCCN2C(=O)[C@H](Cc2ccc(O)cc2)NC(=O)[C@H](CC(C)C)N(C)C(=O)CN(C)C1=O) [Peptide No. 219] ?
## Result 470

## Task Would you mind telling me what Kd value was observed for RF[Pen]TGHF[dS][Sar][NMeL]YPC-NH2 (disulfide 3-13; N-terminus assumed; SMILES CC(C)C[C@H]1C(=O)N[C@@H](Cc2ccc(O)cc2)C(=O)N2CCC[C@H]2C(=O)N[C@H](C(N)=O)CSSC(C)(C)[C@H](NC(=O)[C@H](Cc2ccccc2)NC(=O)[C@@H](N)CCCNC(=N)N)C(=O)N[C@@H]([C@@H](C)O)C(=O)NCC(=O)N[C@@H](Cc2c[nH]cn2)C(=O)N[C@@H](Cc2ccccc2)C(=O)N[C@H](CO)C(=O)N(C)CC(=O)N1C) [Peptide No. 241] ?
## Result 1100

## Task Would you mind telling me what Kd value was observed for RF[Pen]TGHF[dE][Sar][NMeL]YPC-NH2 (disulfide 3-13; N-terminus assumed; SMILES CC(C)C[C@H]1C(=O)N[C@@H](Cc2ccc(O)cc2)C(=O)N2CCC[C@H]2C(=O)N[C@H](C(N)=O)CSSC(C)(C)[C@H](NC(=O)[C@H](Cc2ccccc2)NC(=O)[C@@H](N)CCCNC(=N)N)C(=O)N[C@@H]([C@@H](C)O)C(=O)NCC(=O)N[C@@H](Cc2c[nH]cn2)C(=O)N[C@@H](Cc2ccccc2)C(=O)N[C@H](CCC(=O)O)C(=O)N(C)CC(=O)N1C) [Peptide No. 244] ?
## Result 580

## Task Would you mind telling me what Kd value was observed for RF[Pen]TGHF[dF][Sar][NMeL]YPC-NH2 (disulfide 3-13; N-terminus assumed; SMILES CC(C)C[C@H]1C(=O)N[C@@H](Cc2ccc(O)cc2)C(=O)N2CCC[C@H]2C(=O)N[C@H](C(N)=O)CSSC(C)(C)[C@H](NC(=O)[C@H](Cc2ccccc2)NC(=O)[C@@H](N)CCCNC(=N)N)C(=O)N[C@@H]([C@@H](C)O)C(=O)NCC(=O)N[C@@H](Cc2c[nH]cn2)C(=O)N[C@@H](Cc2ccccc2)C(=O)N[C@H](Cc2ccccc2)C(=O)N(C)CC(=O)N1C) [Peptide No. 217] ?
## Result 1400
